Target: Nuclear factor NF-kappa-B complex (Homo sapiens) (UniProt Q00653+P19838+Q04206)
Sequence (P19838 whole entry, looked up): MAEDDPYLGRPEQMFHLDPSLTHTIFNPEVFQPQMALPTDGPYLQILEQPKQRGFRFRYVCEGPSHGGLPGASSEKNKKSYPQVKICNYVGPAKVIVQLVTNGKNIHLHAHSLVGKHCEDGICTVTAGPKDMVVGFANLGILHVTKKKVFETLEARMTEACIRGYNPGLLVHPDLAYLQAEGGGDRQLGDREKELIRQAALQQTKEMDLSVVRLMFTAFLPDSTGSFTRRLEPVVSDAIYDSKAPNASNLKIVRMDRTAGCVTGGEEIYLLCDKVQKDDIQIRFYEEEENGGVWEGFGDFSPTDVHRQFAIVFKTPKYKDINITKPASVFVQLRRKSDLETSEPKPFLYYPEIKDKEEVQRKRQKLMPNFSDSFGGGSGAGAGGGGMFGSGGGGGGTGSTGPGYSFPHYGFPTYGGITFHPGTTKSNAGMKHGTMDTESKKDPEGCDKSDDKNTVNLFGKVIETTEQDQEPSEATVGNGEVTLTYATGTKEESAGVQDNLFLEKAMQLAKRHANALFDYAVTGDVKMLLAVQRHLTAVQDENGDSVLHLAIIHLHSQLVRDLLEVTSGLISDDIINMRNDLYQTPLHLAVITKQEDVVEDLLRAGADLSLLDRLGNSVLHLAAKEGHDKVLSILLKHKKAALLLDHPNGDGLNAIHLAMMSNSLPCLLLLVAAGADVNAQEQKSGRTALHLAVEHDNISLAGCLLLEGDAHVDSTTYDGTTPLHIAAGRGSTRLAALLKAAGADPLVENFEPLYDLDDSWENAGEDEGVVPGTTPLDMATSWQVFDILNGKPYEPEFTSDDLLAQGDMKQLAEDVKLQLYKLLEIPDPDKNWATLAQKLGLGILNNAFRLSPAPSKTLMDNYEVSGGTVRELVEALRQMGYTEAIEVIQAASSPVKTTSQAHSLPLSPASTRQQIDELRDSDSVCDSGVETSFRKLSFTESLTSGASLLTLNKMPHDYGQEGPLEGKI
Sequence (Q00653 whole entry, looked up): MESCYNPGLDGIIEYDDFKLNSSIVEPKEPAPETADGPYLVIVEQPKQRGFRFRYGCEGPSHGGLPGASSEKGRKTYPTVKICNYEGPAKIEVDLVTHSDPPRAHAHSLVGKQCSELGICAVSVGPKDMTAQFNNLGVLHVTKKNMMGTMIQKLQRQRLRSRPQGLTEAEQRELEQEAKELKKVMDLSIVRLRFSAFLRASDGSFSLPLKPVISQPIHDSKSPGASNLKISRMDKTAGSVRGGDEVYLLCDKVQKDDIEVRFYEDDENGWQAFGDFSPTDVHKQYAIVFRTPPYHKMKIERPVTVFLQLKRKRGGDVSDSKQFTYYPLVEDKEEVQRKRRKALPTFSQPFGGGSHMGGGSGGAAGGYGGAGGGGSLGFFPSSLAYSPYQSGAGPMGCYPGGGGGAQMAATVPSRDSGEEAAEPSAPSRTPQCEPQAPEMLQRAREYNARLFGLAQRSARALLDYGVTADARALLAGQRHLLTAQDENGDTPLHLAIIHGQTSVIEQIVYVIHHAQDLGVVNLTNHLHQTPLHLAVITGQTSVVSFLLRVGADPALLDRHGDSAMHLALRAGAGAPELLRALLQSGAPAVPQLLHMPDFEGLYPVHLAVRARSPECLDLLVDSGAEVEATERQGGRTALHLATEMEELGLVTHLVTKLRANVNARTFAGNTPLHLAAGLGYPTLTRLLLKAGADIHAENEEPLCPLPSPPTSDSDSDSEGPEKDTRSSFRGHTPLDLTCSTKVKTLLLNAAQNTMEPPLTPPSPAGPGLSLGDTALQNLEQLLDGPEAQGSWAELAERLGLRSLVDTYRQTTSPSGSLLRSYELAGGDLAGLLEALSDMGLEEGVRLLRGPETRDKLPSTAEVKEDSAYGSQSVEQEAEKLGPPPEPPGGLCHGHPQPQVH
Sequence (Q04206 whole entry, looked up): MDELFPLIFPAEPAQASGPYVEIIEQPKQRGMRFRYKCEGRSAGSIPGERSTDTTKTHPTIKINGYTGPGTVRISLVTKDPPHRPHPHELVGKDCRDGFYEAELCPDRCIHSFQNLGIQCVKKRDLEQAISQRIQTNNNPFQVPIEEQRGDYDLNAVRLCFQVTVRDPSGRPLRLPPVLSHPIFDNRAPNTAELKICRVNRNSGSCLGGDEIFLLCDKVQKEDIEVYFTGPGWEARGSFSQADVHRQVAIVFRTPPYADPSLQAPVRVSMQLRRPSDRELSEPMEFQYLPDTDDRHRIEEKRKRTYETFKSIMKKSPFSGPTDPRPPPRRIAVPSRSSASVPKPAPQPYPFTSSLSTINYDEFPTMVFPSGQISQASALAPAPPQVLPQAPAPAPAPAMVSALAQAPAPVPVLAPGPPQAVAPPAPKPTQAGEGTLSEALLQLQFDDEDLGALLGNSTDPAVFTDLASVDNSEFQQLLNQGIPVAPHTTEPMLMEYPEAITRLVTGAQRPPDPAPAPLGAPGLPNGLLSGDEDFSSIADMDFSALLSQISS
Assay: Inhibition of LPS-induced NF-kappaB (unknown origin) expressed in HEK293 cells at 10 ug/ml after 4 hrs by luciferase reporter gene assay relative to LPS-treated control
Assay type: cell-based
Listing of entries alongside the reported Ratio.
measured-endpoint: Ratio

smiles-text	assay-result
COC(=O)[C@H](OC(C)=O)[C@H]1[C@]2(C)C[C@]3(O)[C@@](OC(=O)C(C)C)([C@H]4OC5(C)O[C@@]6([C@H](O)[C@H](O)[C@]78C[C@]7([C@@H](OC(C)=O)C(=O)O[C@H]8c7ccoc7)[C@@]46O5)[C@]13C)[C@H]2OC(C)=O	0.32
COC(=O)C[C@H]1[C@]2(C)C[C@]3(O)[C@@](OC(C)=O)([C@H]4OC5(C)C[C@@H]6[C@](C)([C@@H](OC(C)=O)c7ccoc7)[C@@H](OC(C)=O)[C@@H](OC(C)=O)[C@@](O)([C@@]64O5)[C@]13COC(C)=O)[C@H]2OC(C)=O	0.34

* * *

Target: Nuclear factor NF-kappa-B complex (Homo sapiens) (UniProt Q00653+P19838+Q04206)
Test: Inhibition of LPS-induced NF-kappaB (unknown origin) expressed in HEK293 cells at 100 ug/ml after 4 hrs by luciferase reporter gene assay relative to LPS-treated control
Format: cell-based
measured-endpoint: Ratio

smiles-text	assay-result
CCC12C[C@@H]3[C@](C)([C@@H](OC(C)=O)c4ccoc4)[C@@H](OC(C)=O)[C@@H](OC(C)=O)[C@@]4(O)[C@]3(O1)[C@H](O2)[C@@]1(O)[C@@H](OC(C)=O)[C@@]2(C)C[C@@]1(O)[C@]41COC(=O)C[C@@H]21	0.31
COC(=O)[C@H](O)[C@H]1[C@]2(C)C[C@]3(O)[C@@](O)([C@@H](OC(=O)C(C)C)[C@]45OC6(C)O[C@H]([C@H](OC(C)=O)[C@]78C[C@@]74[C@@H](OC(C)=O)C(=O)O[C@H]8c4ccoc4)[C@]5(O6)[C@]13C)[C@H]2OC(C)=O	0.34
CCC12C[C@@H]3[C@](C)([C@@H](OC(C)=O)c4ccoc4)[C@@H](OC(C)=O)[C@@H](OC(C)=O)[C@@]4(O)[C@]3(O1)[C@H](O2)[C@@]1(OC(C)=O)[C@@H](OC(C)=O)[C@@]2(C)C[C@@]1(O)[C@@]4(COC(C)=O)[C@H]2CC(=O)OC	0.53
CCC12C[C@@H]3[C@](C)([C@@H](OC(C)=O)c4ccoc4)[C@@H](OC(C)=O)[C@@H](OC(C)=O)[C@@]4(O)[C@]3(O1)[C@H](O2)[C@@]1(O)[C@@H](OC(C)=O)[C@@]2(C)C[C@@]1(O)[C@@]4(C)[C@H]2CC(=O)OC	0.17

* * *

Target: Nuclear factor NF-kappa-B complex (Homo sapiens) (UniProt Q00653+P19838+Q04206)
Experiment: Inhibition of LPS-induced NF-kappaB (unknown origin) expressed in HEK293 cells at 1 ug/ml after 4 hrs by luciferase reporter gene assay relative to LPS-treated control
Type: cell-based

smiles-text	Ratio
CC/C(O)=C1/C(=O)O[C@@H]2[C@@]3(OC(C)=O)[C@@H](OC(C)=O)[C@@]4(C)C[C@]35OC3(C)O[C@]26[C@H]1[C@](C)([C@@H](OC(C)=O)c1ccoc1)[C@@H](OC(C)=O)[C@@H](O)[C@]6(O3)[C@]5(COC(C)=O)[C@H]4CC(=O)OC	0.23
CCC1=C[C@@H]2[C@](C)([C@@H](OC(C)=O)c3ccoc3)[C@@H](OC(C)=O)[C@@H](OC(C)=O)[C@@]34OC(=O)O[C@@]23[C@H](O1)[C@@]1(O)[C@@H](O)[C@@]2(C)C[C@@]1(O)[C@@]4(C)[C@H]2CC(=O)OC	0.16
COC(=O)[C@H](OC(C)=O)[C@H]1[C@]2(C)C[C@]3(O)[C@@](O)([C@@H](OC(=O)C(C)C)[C@]45OC6(C)O[C@H]([C@H](OC(C)=O)[C@]78C[C@@]74[C@@H](OC(C)=O)C(=O)O[C@H]8c4ccoc4)[C@]5(O6)[C@]13C)[C@H]2OC(C)=O	0.37
COC(=O)[C@H](OC(C)=O)[C@H]1[C@]2(C)C[C@]3(O)[C@@](O)([C@@H](OC(=O)C(C)C)[C@]45OC6(C)O[C@H]([C@H](O)[C@]78C[C@@]74[C@@H](OC(C)=O)C(=O)O[C@H]8c4ccoc4)[C@]5(O6)[C@]13C)[C@H]2OC(C)=O	0.05
CCC12C[C@@H]3[C@](C)([C@@H](OC(C)=O)c4ccoc4)[C@@H](OC(C)=O)[C@@H](OC(C)=O)[C@@]4(O)[C@]3(O1)[C@H](O2)[C@@]1(OC(C)=O)[C@@H](OC(C)=O)[C@@]2(C)C[C@@]1(O)[C@@]4(C)[C@H]2CC(=O)OC	0.61
CCC(=O)O[C@@H]1[C@@]2(O)[C@@H](OC(C)=O)[C@@]3(C)C[C@]24OC2(C)O[C@]15[C@@H]1CC(=O)O[C@@H](c6ccoc6)[C@]1(C)[C@@H](OC(C)=O)[C@@H](O)[C@]5(O2)[C@]4(COC(C)=O)[C@H]3CC(=O)OC	0.18
COC(=O)C[C@H]1[C@]2(C)C[C@]3(O)[C@@](O)([C@@H](OC(=O)C(C)C)[C@]45OC6(C)O[C@H]([C@H](O)[C@]78C[C@@]74[C@@H](OC(C)=O)C(=O)O[C@H]8c4ccoc4)[C@]5(O6)[C@]13C)[C@H]2OC(C)=O	0.1
COC(=O)[C@H](OC(C)=O)[C@H]1[C@]2(C)C[C@]3(O)[C@@](OC(=O)C(C)C)([C@H]4OC5(C)O[C@@]6([C@H](O)[C@H](O)[C@]78C[C@]7([C@@H](OC(C)=O)C(=O)O[C@H]8c7ccoc7)[C@@]46O5)[C@]13C)[C@H]2OC(C)=O	0.09
C[C@]12CCC(=O)C=C1CC[C@@H]1[C@@H]2[C@@H](O)C[C@@]2(C)[C@H]1CC[C@]2(O)C(=O)CO	0.29
CCC12C[C@@H]3[C@](C)([C@@H](OC(C)=O)c4ccoc4)[C@@H](OC(C)=O)[C@@H](OC(C)=O)[C@@]4(O)[C@]3(O1)[C@H](O2)[C@@]1(OC(C)=O)[C@@H](OC(C)=O)[C@@]2(C)C[C@@]1(O)[C@]41COC(=O)C[C@@H]21	0.09
COC(=O)C[C@H]1[C@]2(C)C[C@]3(O)[C@@](O)([C@@H](OC(=O)C(C)C)[C@]45OC6(C)O[C@H]([C@H](OC(C)=O)[C@]78C[C@@]74[C@@H](OC(C)=O)C(=O)O[C@H]8c4ccoc4)[C@]5(O6)[C@]13C)[C@H]2OC(C)=O	0.12
COC(=O)C[C@H]1[C@]2(C)C[C@]3(O)[C@@](OC(C)=O)([C@H]4OC5(C)C[C@@H]6[C@](C)([C@@H](OC(C)=O)c7ccoc7)[C@@H](OC(C)=O)[C@@H](OC(C)=O)[C@@](O)([C@@]64O5)[C@]13COC(C)=O)[C@H]2OC(C)=O	0.23
COC(=O)C[C@H]1[C@]2(C)C[C@]3(O)[C@@](OC(C)=O)([C@H]4OC5(C)C[C@@H]6[C@](C)([C@@H](OC(C)=O)c7ccoc7)[C@@H](OC(C)=O)[C@@H](OC(C)=O)[C@@](O)([C@@]64O5)[C@]13C)[C@H]2OC(C)=O	0.21
CCC12C[C@@H]3[C@](C)([C@@H](OC(C)=O)c4ccoc4)[C@@H](OC(C)=O)[C@@H](OC(C)=O)[C@@]4(O)[C@]3(O1)[C@H](O2)[C@@]1(O)[C@@H](OC(C)=O)[C@@]2(C)C[C@@]1(O)[C@]41COC(=O)C[C@@H]21	0.16
CC/C(O)=C1/C(=O)O[C@@H]2[C@@]3(O)[C@@H](OC(C)=O)[C@@]4(C)C[C@]35OC3(C)O[C@]26[C@H]1[C@](C)([C@@H](OC(C)=O)c1ccoc1)[C@@H](OC(=O)C(C)C)[C@@H](OC(=O)C(C)C)[C@]6(O3)[C@@]51COC(=O)C[C@@H]41	0.11
CCC12C[C@@H]3[C@](C)([C@@H](OC(C)=O)c4ccoc4)[C@@H](O)[C@@H](OC(C)=O)[C@@]4(O)[C@]3(O1)[C@H](O2)[C@@]1(OC(C)=O)[C@@H](O)[C@@]2(C)C[C@@]1(O)[C@@]4(C)[C@H]2[C@@H](O)C(=O)OC	0.1
